Test: Cytotoxicity against human Hep2 cells assessed as growth inhibition
Format: functional
Details: HEp-2, read-out: ED50 (the source's name)
Catalogue of pEC50 readings, one per entry.
Note on units: pEC50 is unitless, being -log10 of a concentration expressed in mol/L.

Past entries and their recorded results:
* CSc1ncnc2c1nnn2[C@@H]1O[C@H](COC(C)=O)[C@@H](OC(C)=O)[C@H]1OC(C)=O | 6.30
* COc1ncnc2c1nnn2[C@@H]1O[C@H](CO)[C@@H](O)[C@H]1O | 6.52
* CCSc1ncnc2c1nnn2[C@@H]1O[C@H](CO)[C@@H](O)[C@H]1O | 7.00

q: Give reported pEC50 value for `CCCCNc1ncnc2c1nnn2[C@@H]1O[C@H](CO)[C@@H](O)[C@H]1O`
a: 6.52

q: Give the reported pEC50 for this compound. `CSc1ncnc2c1nnn2[C@@H]1O[C@H](CO)[C@@H](O)[C@H]1O`
a: 7.70

* * *

EC50 values by entry
Assay: Cytotoxicity against human Hep2 cells assessed as growth inhibition
Format: functional
Conditions: HEp-2, read-out: ED50 (the source's name)
Record the value in nM, omitting the unit from your answer.

q: Output EC50 of `CCOc1ncnc2c1nnn2[C@@H]1O[C@H](CO)[C@@H](O)[C@H]1O`
a: 100

q: Using known records, supply EC50 for `OC[C@H]1O[C@@H](n2nnc3c(S)ncnc32)[C@H](O)[C@@H]1O`
a: 1000

q: # return recorded EC50 for input `OC[C@H]1O[C@@H](Nc2ncnc3snnc23)[C@H](O)[C@@H]1O`
a: 100

* * *

Assay: Cytotoxicity against human Hep2 cells assessed as growth inhibition
Format: functional
Conditions: HEp-2, read-out: ED50 (the source's name)
Measured EC50 values are reported for all entries that follow.
Respond numerically; units are µM and should not be typed.

Here are 2 molecules together with their reported answers.
* CSc1ncnc2nn([C@@H]3O[C@H](CO)[C@@H](O)[C@H]3O)nc12 | 6
* CSc1ncnc2nn([C@@H]3O[C@H](COC(C)=O)[C@@H](OC(C)=O)[C@H]3OC(C)=O)nc12 | 7

Would you kindly look at the next entry?
q: Complete the entry with EC50 for `Nc1ncnc2c1nnn2[C@@H]1O[C@H](CO)[C@@H](O)[C@H]1O`
a: 0.8
